System: E. cloacae 5D52-2
Experiment: MIC
Settings: Enterobacter cloacae, 5D522
Structures can show the parent of a compound that is named as a salt.
reportedEndpoint: MIC (µg/mL)

compound | reportedEndpoint | measurement
CC(=O)Oc1ccc(C(=O)NNC(=O)C(C)(C)ON=C(C(=O)NC2C(=O)N3C(C(=O)O)=C(CSc4c(C)c(C)nc5c(C(=O)O)cnn45)CS[C@H]23)c2csc(N)n2)cc1OC(C)=O (some centres unmarked) | MIC | 0.2
CC(=O)Oc1ccc(C(=O)NNC(=O)C(C)(C)ON=C(C(=O)NC2C(=O)N3C(C(=O)O)=C(CSc4cc(C)nc5nc(C(=O)O)nn45)CS[C@H]23)c2csc(N)n2)cc1OC(C)=O (some centres unmarked) | MIC | 0.39
Cc1cc(SCC2=C(C(=O)O)N3C(=O)C(NC(=O)C(=NOC(C)(C)C(=O)NNC(=O)c4ccc(O)c(O)c4)c4csc(N)n4)C3SC2)n2nc(C(=O)O)nc2n1 (centres unmarked) | MIC | 0.2
Cc1nc2ncnn2c(SCC2=C(C(=O)O)N3C(=O)C(NC(=O)C(=NOC(C)(C)C(=O)NNC(=O)c4ccc(O)c(O)c4)c4csc(N)n4)C3SC2)c1C (centres unmarked) | MIC | 0.39
CC(=O)Oc1ccc(C(=O)NNC(=O)C(C)(C)ON=C(C(=O)NC2C(=O)N3C(C(=O)O)=C(CSc4cc(C)nc5c(C(=O)O)cnn45)CSC23)c2csc(N)n2)cc1OC(C)=O (centres unmarked) [Example 53, sodium salt] | MIC | 0.1

* * *

Test system: E. coli GN5482
Experiment: MIC
Details: Escherichia coli, GN5482, E. coli GN5482; Table 5
Entries and their MIC

molecule | rel | MIC / µg/mL
Cc1cc(SCC2=C(C(=O)O)N3C(=O)C(NC(=O)C(=NOC(C)(C)C(=O)NNC(=O)c4ccc(O)c(O)c4)c4csc(N)n4)C3SC2)n2nnnc2n1 (centres unmarked) | = | 0.025
CC(C)(ON=C(C(=O)NC1C(=O)N2C(C(=O)O)=C(CSc3ccnc4ncnn34)CSC12)c1csc(N)n1)C(=O)NNC(=O)c1ccc(O)c(O)c1 (centres unmarked) | = | 0.025
Cc1cc(SCC2=C(C(=O)O)N3C(=O)C(NC(=O)C(=NOC(C)(C)C(=O)NNC(=O)c4ccc(O)c(O)c4)c4csc(N)n4)C3SC2)n2ncc(C(=O)O)c2n1 (centres unmarked) | < | 0.006
Cc1nc2nc(C(=O)O)cc(SCC3=C(C(=O)O)N4C(=O)C(NC(=O)C(=NOC(C)(C)C(=O)NNC(=O)c5ccc(O)c(O)c5)c5csc(N)n5)C4SC3)n2n1 (centres unmarked) | = | 0.012
Cc1nc2ncnn2c(SCC2=C(C(=O)O)N3C(=O)C(NC(=O)C(=NOC(C)(C)C(=O)NNC(=O)c4ccc(O)c(O)c4)c4csc(N)n4)C3SC2)c1C (centres unmarked) | < | 0.006

* * *

System: P. maltophilia OF247
Test: MIC
Conditions: Stenotrophomonas maltophilia, Table 7
Where a name gives a salt, the structure may show the parent alone.

compound | MIC
CC(=O)Oc1ccc(C(=O)NNC(=O)C(C)(C)ON=C(C(=O)NC2C(=O)N3C(C(=O)O)=C(CSc4cc(C)nc5nc(C(=O)O)nn45)CS[C@H]23)c2csc(N)n2)cc1OC(C)=O (stereo partly drawn) | 1.56 µg/mL
Cc1cc(SCC2=C(C(=O)O)N3C(=O)C(NC(=O)C(=NOC(C)(C)C(=O)NNC(=O)c4ccc(O)c(O)c4)c4csc(N)n4)[C@H]3SC2)n2nc(C)cc2n1 (stereo partly drawn) | 1.56 µg/mL
CC(=O)Oc1ccc(C(=O)NNC(=O)C(C)(C)ON=C(C(=O)NC2C(=O)N3C(C(=O)O)=C(CSc4c(C)c(C)nc5c(C(=O)O)cnn45)CS[C@H]23)c2csc(N)n2)cc1OC(C)=O (stereo partly drawn) | 0.78 µg/mL
Cc1cc(SCC2=C(C(=O)O)N3C(=O)C(NC(=O)C(=NOC(C)(C)C(=O)NNC(=O)c4ccc(O)c(O)c4)c4csc(N)n4)[C@H]3SC2)n2nccc2n1 (stereo partly drawn) | 1.56 µg/mL
CC(=O)Oc1ccc(C(=O)NNC(=O)C(C)(C)ON=C(C(=O)NC2C(=O)N3C(C(=O)O)=C(CSc4cc(C)nc5c(C(=O)O)cnn45)CSC23)c2csc(N)n2)cc1OC(C)=O (stereo not drawn) [Example 53, sodium salt] | 0.78 µg/mL
Cc1cc(SCC2=C(C(=O)O)N3C(=O)C(NC(=O)C(=NOC(C)(C)C(=O)NNC(=O)c4ccc(O)c(O)c4)c4csc(N)n4)[C@H]3SC2)n2nc(C(F)(F)F)nc2n1 (stereo partly drawn) | 1.56 µg/mL

* * *

Entries and their MIC
Tested on: S. aureus Smith
Experiment: MIC
Settings: Staphylococcus aureus, Table 5
reportedEndpoint: MIC (µg/mL)

compound | readoutUnits | measurement
CC(C)(ON=C(C(=O)NC1C(=O)N2C(C(=O)O)=C(CSc3ccnc4ncnn34)CSC12)c1csc(N)n1)C(=O)NNC(=O)c1ccc(O)c(O)c1 (stereo not drawn) | µg/mL | 1.56
Cc1cc(SCC2=C(C(=O)O)N3C(=O)C(NC(=O)C(=NOC(C)(C)C(=O)NNC(=O)c4ccc(O)c(O)c4)c4csc(N)n4)C3SC2)n2ncc(C(=O)O)c2n1 (stereo not drawn) | µg/mL | 6.25
Cc1cc(SCC2=C(C(=O)O)N3C(=O)C(NC(=O)C(=NOC(C)(C)C(=O)NNC(=O)c4ccc(O)c(O)c4)c4csc(N)n4)C3SC2)n2ncnc2n1 (stereo not drawn) | µg/mL | 3.13

* * *

Entries and their MIC
Tested on: S. aureus Smith
Assay: MIC
Details: Staphylococcus aureus, Table 5

compound | targetUnderTest | MIC / µg/mL
CC(C)(ON=C(C(=O)NC1C(=O)N2C(C(=O)O)=C(CSc3c4c(nc5c(C(=O)O)cnn35)CCC4)CSC12)c1csc(N)n1)C(=O)NNC(=O)c1ccc(O)c(O)c1 (stereo not drawn) | S. aureus Smith | 12.5
CC(C)(ON=C(C(=O)NC1C(=O)N2C(C(=O)O)=C(CSc3c4c(nc5nc(C(=O)O)nn35)CCC4)CSC12)c1csc(N)n1)C(=O)NNC(=O)c1ccc(O)c(O)c1 (stereo not drawn) | S. aureus Smith | 25
CC(C)(ON=C(C(=O)NC1C(=O)N2C(C(=O)O)=C(CSc3c4c(nc5ncnn35)CCC4)CSC12)c1csc(N)n1)C(=O)NNC(=O)c1ccc(O)c(O)c1 (stereo not drawn) | S. aureus Smith | 6.25

* * *

System: P. aeruginosa 4au542
Experiment: MIC
Conditions: Pseudomonas aeruginosa, 4AU542, P. aeruginosa 4au542; Table 7
Structures can show the parent of a compound that is named as a salt.
reportedEndpoint: MIC (µg/mL)

molecule | readoutUnits | measurement
CC(=O)Oc1ccc(C(=O)NNC(=O)C(C)(C)ON=C(C(=O)NC2C(=O)N3C(C(=O)O)=C(CSc4cc(C)nc5nc(C(F)(F)F)nn45)CS[C@H]23)c2csc(N)n2)cc1OC(C)=O (some centres unmarked) | µg/mL | 1.56
Cc1cc(SCC2=C(C(=O)O)N3C(=O)C(NC(=O)C(=NOC(C)(C)C(=O)NNC(=O)c4ccc(O)c(O)c4)c4csc(N)n4)[C@H]3SC2)n2nccc2n1 (some centres unmarked) | µg/mL | 0.2
CC(=O)Oc1ccc(C(=O)NNC(=O)C(C)(C)ON=C(C(=O)NC2C(=O)N3C(C(=O)O)=C(CSc4cc(C)nc5c(C(=O)O)cnn45)CSC23)c2csc(N)n2)cc1OC(C)=O (centres unmarked) [Example 53, sodium salt] | µg/mL | 0.05
CC(C)(ON=C(C(=O)NC1C(=O)N2C(C(=O)O)=C(CSc3ccnc4nc(C(=O)O)nn34)CS[C@H]12)c1csc(N)n1)C(=O)NNC(=O)c1ccc(O)c(O)c1 (some centres unmarked) | µg/mL | 0.2
Cc1cc(SCC2=C(C(=O)O)N3C(=O)C(NC(=O)C(=NOC(C)(C)C(=O)NNC(=O)c4ccc(O)c(O)c4)c4csc(N)n4)[C@H]3SC2)n2nc(C(F)(F)F)nc2n1 (some centres unmarked) | µg/mL | 0.39

* * *

Tested on: E. cloacae 5D52-2
Assay: MIC
Conditions: Enterobacter cloacae, 5D522

compound | readoutUnits | MIC
Cc1cc(SCC2=C(C(=O)O)N3C(=O)C(NC(=O)C(=NOC(C)(C)C(=O)NNC(=O)c4ccc(O)c(O)c4)c4csc(N)n4)[C@H]3SC2)n2nc(C)cc2n1 (stereo partly shown) | µg/mL | 0.1
Cc1cc(SCC2=C(C(=O)O)N3C(=O)C(NC(=O)C(=NOC(C)(C)C(=O)NNC(=O)c4ccc(O)c(O)c4)c4csc(N)n4)C3SC2)n2nnnc2n1 (stereo not shown) | µg/mL | 0.78
Cc1nc2c(C(=O)O)cnn2c(SCC2=C(C(=O)O)N3C(=O)C(NC(=O)C(=NOC(C)(C)C(=O)NNC(=O)c4ccc(O)c(O)c4)c4csc(N)n4)C3SC2)c1C (stereo not shown) | µg/mL | 0.1
CC(C)(ON=C(C(=O)NC1C(=O)N2C(C(=O)O)=C(CSc3ccnc4nc(C(=O)O)nn34)CS[C@H]12)c1csc(N)n1)C(=O)NNC(=O)c1ccc(O)c(O)c1 (stereo partly shown) | µg/mL | 0.1
CC(=O)Oc1ccc(C(=O)NNC(=O)C(C)(C)ON=C(C(=O)NC2C(=O)N3C(C(=O)O)=C(CSc4cc(C)nc5nc(C(F)(F)F)nn45)CS[C@H]23)c2csc(N)n2)cc1OC(C)=O (stereo partly shown) | µg/mL | 1.56
Cc1nc2nc(C(=O)O)nn2c(SCC2=C(C(=O)O)N3C(=O)C(NC(=O)C(=NOC(C)(C)C(=O)NNC(=O)c4ccc(O)c(O)c4)c4csc(N)n4)C3SC2)c1C (stereo not shown) | µg/mL | 0.05
Cc1cc(SCC2=C(C(=O)O)N3C(=O)C(NC(=O)C(=NOC(C)(C)C(=O)NNC(=O)c4ccc(O)c(O)c4)c4csc(N)n4)[C@H]3SC2)n2nccc2n1 (stereo partly shown) | µg/mL | 0.1
